Would you kindly list IC50 for each of these compounds?
biological target: full-length human PKCι (Homo sapiens, UniProt P41743); construct: Recombinant, full-length human PKCι expressed in Sf21 insect cells is also commercially available; purchased; host or cells: Sf21 insect cells; experiment: PKCι IC50 IMAP fluorescence polarisation assay, full-length enzyme; type: biochemical; conditions: full length PKCi at 15 μM ATP; read-out: IC50 in IMAP assay against full length PKCi
Sequence (P41743 whole entry): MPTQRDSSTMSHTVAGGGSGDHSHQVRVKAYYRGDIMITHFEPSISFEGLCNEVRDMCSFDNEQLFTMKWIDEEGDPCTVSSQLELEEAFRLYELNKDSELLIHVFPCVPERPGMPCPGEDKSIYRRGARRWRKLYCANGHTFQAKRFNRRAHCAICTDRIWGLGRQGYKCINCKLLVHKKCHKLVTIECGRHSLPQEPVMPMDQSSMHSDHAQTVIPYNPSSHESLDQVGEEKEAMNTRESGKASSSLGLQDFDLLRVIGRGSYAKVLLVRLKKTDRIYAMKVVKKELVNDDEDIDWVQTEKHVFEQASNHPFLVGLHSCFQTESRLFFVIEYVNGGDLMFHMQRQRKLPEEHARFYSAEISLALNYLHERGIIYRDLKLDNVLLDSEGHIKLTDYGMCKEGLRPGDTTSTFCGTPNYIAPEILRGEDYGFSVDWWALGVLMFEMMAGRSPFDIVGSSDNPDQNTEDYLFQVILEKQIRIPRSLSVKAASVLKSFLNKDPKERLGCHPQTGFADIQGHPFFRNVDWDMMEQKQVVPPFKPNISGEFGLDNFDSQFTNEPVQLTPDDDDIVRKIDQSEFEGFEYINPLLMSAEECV

// returns reported IC50 for input N[C@H](CNc1nc(-c2ccncc2)nc2c(Nc3ccccc3)csc12)Cc1ccccc1
100 to 1000 nM

// returns reported IC50 for input COc1cccc(OCC(C)C)c1-c1c(C)sc2c(NC[C@@H](N)Cc3ccccc3)nc(-c3ccncc3)nc12
10000 to 40000 nM

// returns reported IC50 for input CCC(C)(C)C(=O)Nc1csc2c(NC[C@@H](N)Cc3ccccc3)nc(-c3ccncc3)nc12
10000 to 40000 nM

// returns reported IC50 for input N[C@H](CNc1nc(-c2ccncc2F)nc2c(-c3cc[nH]c3)csc12)Cc1ccccc1
100 to 1000 nM

// returns reported IC50 for input CC(C)[C@H](N)CNc1nc(-c2ccncc2)nc2c(Br)csc12
100 to 1000 nM
